# Test system: LCLC-103H
# assaySummary: relative viability (nuclei count vs DMSO), 5 days (fraction); higher = more cells survive
# conditionContext: first compound 0.003162 µM
measurementKind: relative viability

Req: I would be grateful if you could share the reported relative viability for Cc1cn(-c2cc(NC(=O)c3ccc(C)c(Nc4nccc(-c5cccnc5)n4)c3)cc(C(F)(F)F)c2)cn1 [Nilotinib] + CC(=O)Nc1cccc(-n2c(=O)n(C3CC3)c(=O)c3c(Nc4ccc(I)cc4F)n(C)c(=O)c(C)c32)c1 [Trametinib] (partner 0.02 µM) .
Resp: 0.773

* * *

# Tested on: NCI-H2342
# assaySummary: relative viability (nuclei count vs DMSO), 5 days (fraction); higher = more cells survive
# conditionContext: first compound 0.001 µM
We begin with a simple list: items and their reported relative viability.
Simply state the number, no unit and no words.

Examples from the recorded data:
{"compound": "Cc1cn(-c2cc(NC(=O)c3ccc(C)c(Nc4nccc(-c5cccnc5)n4)c3)cc(C(F)(F)F)c2)cn1 [Nilotinib] + O=C(CCCCCCC(=O)Nc1ccccc1)NO [Vorinostat] (partner 1 µM)", "relative viability": 0.675}
{"compound": "Cc1cn(-c2cc(NC(=O)c3ccc(C)c(Nc4nccc(-c5cccnc5)n4)c3)cc(C(F)(F)F)c2)cn1 [Nilotinib] + Cc1cc(Nc2cc(N3CCN(C)CC3)nc(Sc3ccc(NC(=O)C4CC4)cc3)n2)n[nH]1 [Tozasertib] (partner 0.1 µM)", "relative viability": 0.501}
{"compound": "Cc1cn(-c2cc(NC(=O)c3ccc(C)c(Nc4nccc(-c5cccnc5)n4)c3)cc(C(F)(F)F)c2)cn1 [Nilotinib] + Nc1ncn([C@H]2C[C@H](O)[C@@H](CO)O2)c(=O)n1 [Decitabine] (partner 2 µM)", "relative viability": 0.704}

Then this compound:
Req: Hello, I am looking for reported relative viability with NCI-H2342 for Cc1cn(-c2cc(NC(=O)c3ccc(C)c(Nc4nccc(-c5cccnc5)n4)c3)cc(C(F)(F)F)c2)cn1 [Nilotinib] + CCNC(=O)c1noc(-c2cc(C(C)C)c(O)cc2O)c1-c1ccc(CN2CCOCC2)cc1 [Luminespib] (partner 0.01 µM) . Could you help?
Resp: 0.595
